Data provenance is patent US20200317769A1.

target: soluble cynomolgus monkey TNF-alpha (cynomolgus monkey, UniProt P79337 77-233); experiment: cell-based or functional assay
Sequence (P79337 77-233 limits assumed): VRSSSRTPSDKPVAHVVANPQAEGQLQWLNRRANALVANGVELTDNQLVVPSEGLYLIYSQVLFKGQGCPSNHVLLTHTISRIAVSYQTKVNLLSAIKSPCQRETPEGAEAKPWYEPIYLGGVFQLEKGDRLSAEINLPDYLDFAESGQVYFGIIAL
endpoint: Inhibition of cynomolgus TNF-induced L929 cell cytotoxicity EC50 (nM)
Numeric only. Scale: nM

[ask] Report Inhibition of cynomolgus TNF-induced L929 cell cytotoxicity EC50 for Q62F11 (VHH, not shown: small tags and cut ends, Neither Family 1 nor Family 2; purified from E. coli) VHH: QVQLVESGGGLVQPGGSLRLSCAASGFSFSDYVMGWFRQAPGKEREFVGFIRWDGLVTRYADAVKGRFTISRDNARNTLSLQTIGLLAEDTAVYYCAASGGGSGPVNAGSYEYWGQGTQVTVSS please.
[reply] 1.5

[ask] Report Inhibition of cynomolgus TNF-induced L929 cell cytotoxicity EC50 for Q62F2 (VHH, not shown: small tags and cut ends, Family 1; purified from E. coli) VHH: QVQLVESGGGLVQPGGSLRLSCAASGFDFNSHWMYWVRQAPGKGLEWVSEINTNGLITNYVDSVKGRFTVSRDNAANTLYLEMTSLKPEDTALYYCARNQKGLNKGQGTQVTVSS please.
[reply] 0.8

[ask] Report Inhibition of cynomolgus TNF-induced L929 cell cytotoxicity EC50 for Q62F10 (VHH, not shown: small tags and cut ends, Family 2; purified from E. coli) VHH: EVQLVESGGGLVQPGGSLRLSCVASGFDFNIHWMYWVRQAPGKELEWVAEINTNGLITVYPDSVKGRFTISRDNAKNTLFLQMNNLKFEDTAVYYCTNTQNGKTKGQGTQVTVSS please.
[reply] 1.3
